molecular target: T1, biotinylated CD3 epsilon:delta heterodimer protein (Amsbio AMS.CDD-H52WO) (Homo sapiens (Human), UniProt P07766 23-126; P04234 22-105); assay: BLI (Octet), CD3 on SA sensor, Fab analyte;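 also: biolayer interferometry with biotinylated CD3 epsilon:delta captured on streptavidin sensors, Fab analyte at several concentrations up to 300 nM, 100 s association then 300 s dissociation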
T1 construct: also called CD3 heterodimer
# Lookup of reported koff keyed by entry
Record the value in s⁻¹, omitting the unit from your answer.

Sample records with koff:
{"BINDER": "huSP34.6.6 Fab-HF (Fab, V domains shown, also called HC6+LC6) VH: EVQLVESGGGLVQPGGSLRLSCAASGFTFSTYAMNWVRQAPGKGLEWVGRIRSKYNNYATYYADSVKGRFTISRDNSKNTLYLQMNSLRAEDTAMYYCVRHGNFGNSYVSWFAVWGQGTLVTVSS VL: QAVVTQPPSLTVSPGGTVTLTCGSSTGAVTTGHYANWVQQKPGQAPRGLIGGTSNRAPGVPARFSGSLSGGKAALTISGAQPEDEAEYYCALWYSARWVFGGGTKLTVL", "koff / s⁻¹": 0.0292}
{"BINDER": "huSP34.2.2 Fab-HF (Fab, V domains shown, also called HC2+LC2) VH: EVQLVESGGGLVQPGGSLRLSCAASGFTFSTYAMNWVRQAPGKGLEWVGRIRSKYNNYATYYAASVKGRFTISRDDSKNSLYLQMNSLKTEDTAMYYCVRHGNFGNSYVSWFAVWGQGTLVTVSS VL: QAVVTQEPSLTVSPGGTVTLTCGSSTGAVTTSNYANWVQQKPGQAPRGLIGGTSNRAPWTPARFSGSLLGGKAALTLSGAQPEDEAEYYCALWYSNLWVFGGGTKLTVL", "koff / s⁻¹": 0.0141}

Please look at the following binder next.
koff measured on huSP34.5.4 Fab-HF (Fab, V domains shown, also called HC5+LC4) VH: EVQLVESGGGLVQPGGSLRLSCAASGFTFSTYAMNWVRQAPGKGLEWVGRIRSKYNNYATYYADSVKGRFTISRDNSKNTLYLQMNSLRAEDTAVYYCVRHGNFGHSYVSWFAVWGQGTLVTVSS VL: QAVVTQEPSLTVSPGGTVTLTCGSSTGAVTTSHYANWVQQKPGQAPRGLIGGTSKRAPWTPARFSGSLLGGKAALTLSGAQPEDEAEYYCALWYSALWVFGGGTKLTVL = 0.213
